meta.source: ChEMBL document CHEMBL5338818

test: Metabolic stability in human liver microsomes assessed as intrinsic clearance at 100 uM incubated for 60 mins in presence of NADPH by LC-MS/MS analysis; format: ADME, Microsome; settings: read-out: CLH
Measured attribute: microsomal CLint at 100 µM (µL/min/mg)
Record the value in µL/min/mg, omitting the unit from your answer.

Prompt: Need microsomal CLint at 100 µM, item Cc1cc(Nc2nc(NCc3ccc(F)cc3F)nc3c2cnn3C2CCN(C(=O)C3CCN(c4ccc5c(c4)C(=O)N(C4CCC(=O)NC4=O)C5=O)CC3)CC2)n[nH]1 (stereo unspecified)
Response: 21.7

###

// reported Activity for each item listed
biological target: Protein cereblon/Serine/threonine-protein kinase PLK4 (Homo sapiens, UniProt O00444+Q96SW2); assay: Protac activity at CRBN/PLK4 in human MCF7 cells at 1 uM incubated for 48 hrs by Western blot analysis; assay type: cell-based
Sequence (O00444 whole entry, looked up): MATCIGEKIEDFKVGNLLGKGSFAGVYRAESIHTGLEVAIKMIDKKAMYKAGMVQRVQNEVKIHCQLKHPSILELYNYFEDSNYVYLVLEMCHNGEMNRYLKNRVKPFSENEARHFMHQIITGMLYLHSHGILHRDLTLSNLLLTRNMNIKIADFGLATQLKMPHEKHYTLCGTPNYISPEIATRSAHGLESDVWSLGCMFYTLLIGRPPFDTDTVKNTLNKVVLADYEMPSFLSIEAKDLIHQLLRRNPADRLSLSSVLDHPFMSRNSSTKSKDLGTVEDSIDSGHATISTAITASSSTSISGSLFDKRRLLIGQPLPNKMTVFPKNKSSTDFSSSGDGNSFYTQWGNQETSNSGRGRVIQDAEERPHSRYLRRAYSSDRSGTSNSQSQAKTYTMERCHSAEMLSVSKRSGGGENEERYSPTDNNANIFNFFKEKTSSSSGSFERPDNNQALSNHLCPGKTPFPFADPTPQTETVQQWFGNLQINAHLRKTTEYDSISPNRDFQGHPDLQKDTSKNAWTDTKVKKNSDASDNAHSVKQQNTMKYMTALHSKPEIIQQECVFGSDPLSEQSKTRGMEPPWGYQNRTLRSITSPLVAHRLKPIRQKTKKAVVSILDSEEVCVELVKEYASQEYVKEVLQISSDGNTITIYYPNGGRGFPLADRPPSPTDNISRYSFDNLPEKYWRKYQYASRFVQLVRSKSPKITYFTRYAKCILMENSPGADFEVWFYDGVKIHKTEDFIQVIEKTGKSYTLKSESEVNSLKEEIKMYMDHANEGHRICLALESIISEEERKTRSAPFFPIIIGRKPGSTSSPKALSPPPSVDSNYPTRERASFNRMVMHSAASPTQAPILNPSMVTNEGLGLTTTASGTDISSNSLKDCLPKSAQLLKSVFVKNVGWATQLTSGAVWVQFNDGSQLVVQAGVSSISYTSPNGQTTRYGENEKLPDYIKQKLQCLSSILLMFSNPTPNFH
Sequence (Q96SW2 whole entry, looked up): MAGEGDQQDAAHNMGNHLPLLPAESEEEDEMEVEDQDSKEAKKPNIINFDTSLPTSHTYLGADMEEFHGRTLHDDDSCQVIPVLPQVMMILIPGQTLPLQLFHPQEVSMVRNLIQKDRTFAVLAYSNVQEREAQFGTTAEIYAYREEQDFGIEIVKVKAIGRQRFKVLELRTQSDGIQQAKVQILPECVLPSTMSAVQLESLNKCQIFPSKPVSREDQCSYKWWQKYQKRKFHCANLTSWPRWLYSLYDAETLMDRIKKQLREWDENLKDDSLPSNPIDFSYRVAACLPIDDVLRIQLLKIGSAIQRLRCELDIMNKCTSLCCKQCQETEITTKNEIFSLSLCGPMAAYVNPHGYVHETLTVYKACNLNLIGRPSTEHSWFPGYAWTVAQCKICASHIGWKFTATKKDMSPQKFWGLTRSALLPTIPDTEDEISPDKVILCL
Record the value in %, omitting the unit from your answer.

Reference set (5 entries):
[[record]]
compound = "Cc1cc(Nc2nc(NCc3ccc(F)cc3F)nc3c2cnn3C2CCN(C(=O)CCCCCCCCCCCCCOc3ccc4c(c3)C(=O)N(C3CCC(=O)NC3=O)C4=O)CC2)n[nH]1 (stereo unspecified)"
measured_attribute = "Activity"
assay_value = 22.8

[[record]]
compound = "Cc1cc(Nc2nc(NCc3ccc(F)cc3F)nc3c2cnn3C2CCN(C(=O)CCOCCOCCCOc3ccc4c(c3)C(=O)N(C3CCC(=O)NC3=O)C4=O)CC2)n[nH]1 (stereo unspecified)"
measured_attribute = "Activity"
assay_value = 46.4

[[record]]
compound = "Cc1cc(Nc2nc(NCc3ccc(F)cc3F)nc3c2cnn3C2CCN(C(=O)CCCCCCOc3ccc4c(c3)C(=O)N(C3CCC(=O)NC3=O)C4=O)CC2)n[nH]1 (stereo unspecified)"
measured_attribute = "Activity"
assay_value = 55.3

[[record]]
compound = "Cc1cc(Nc2nc(NCc3ccc(F)cc3F)nc3c2cnn3C2CCN(C(=O)C3CCN(c4ccc5c(c4)C(=O)N(C4CCC(=O)NC4=O)C5=O)CC3)CC2)n[nH]1 (stereo unspecified)"
measured_attribute = "Activity"
assay_value = 73.4

[[record]]
compound = "Cc1cc(Nc2nc(NCc3ccc(F)cc3F)nc3c2cnn3C2CCN(C(=O)CCCCCCCCCCCCCCCCCOc3ccc4c(c3)C(=O)N(C3CCC(=O)NC3=O)C4=O)CC2)n[nH]1 (stereo unspecified)"
measured_attribute = "Activity"
assay_value = 46.8


Would you kindly look at the next entry?
Prompt: Need Activity, item Cc1cc(Nc2nc(NCc3ccc(F)cc3F)nc3c2cnn3C2CCN(C(=O)c3ccc(C4CCN(c5ccc6c(c5)C(=O)N(C5CCC(=O)NC5=O)C6=O)CC4)cc3)CC2)n[nH]1 (stereo unspecified)
Response: 61.4

###

// reported Activity for each item listed
target: Protein cereblon/Serine/threonine-protein kinase PLK4 (Homo sapiens, UniProt O00444+Q96SW2); experiment: Protac activity at CRBN/PLK4 in human MCF7 cells at 0.1 uM incubated for 48 hrs by Western blot analysis; type: cell-based
Record the value in %, omitting the unit from your answer.

Reference set (4 entries):
[[record]]
compound = "Cc1cc(Nc2nc(NCc3ccc(F)cc3F)nc3c2cnn3C2CCN(C(=O)CCCCCCCCCCCCCCCOc3ccc4c(c3)C(=O)N(C3CCC(=O)NC3=O)C4=O)CC2)n[nH]1 (configuration not stated)"
measured_attribute = "Activity"
assay_value = 24.1

[[record]]
compound = "Cc1cc(Nc2nc(NCc3ccc(F)cc3F)nc3c2cnn3C2CCN(C(=O)CCCCCCCCCCCOc3ccc4c(c3)C(=O)N(C3CCC(=O)NC3=O)C4=O)CC2)n[nH]1 (configuration not stated)"
measured_attribute = "Activity"
assay_value = 4.29

[[record]]
compound = "Cc1cc(Nc2nc(NCc3ccc(F)cc3F)nc3c2cnn3C2CCN(C(=O)C3CN(c4ccc5c(c4)C(=O)N(C4CCC(=O)NC4=O)C5=O)C3)CC2)n[nH]1 (configuration not stated)"
measured_attribute = "Activity"
assay_value = 46.3

[[record]]
compound = "Cc1cc(Nc2nc(NCc3ccc(F)cc3F)nc3c2cnn3C2CCN(C(=O)CCCCCCOc3ccc4c(c3)C(=O)N(C3CCC(=O)NC3=O)C4=O)CC2)n[nH]1 (configuration not stated)"
measured_attribute = "Activity"
assay_value = 31.7


Prompt: Need Activity, item Cc1cc(Nc2nc(NCc3ccc(F)cc3F)nc3c2cnn3C2CCN(C(=O)C3CCN(c4ccc5c(c4)C(=O)N(C4CCC(=O)NC4=O)C5=O)CC3)CC2)n[nH]1 (configuration not stated)
Response: 68.3

###

assay: Observed AUC infinity in ICR mouse at 2 mg/kg, iv measured upto 24 hrs by LC-M/MS analysis; assay type: ADME, organism-based; parameters: time < 24 hrs, dose 2 mg/kg, route iv; settings: in vivo
Measured attribute: AUC(0-inf) (ng·h/mL)
Record the value in ng·h/mL, omitting the unit from your answer.

Prompt: Need AUC(0-inf), item Cc1cc(Nc2nc(NCc3ccc(F)cc3F)nc3c2cnn3C2CCN(C(=O)C3CCN(c4ccc5c(c4)C(=O)N(C4CCC(=O)NC4=O)C5=O)CC3)CC2)n[nH]1 (stereo unspecified)
Response: 956

###

assay: Metabolic stability in human liver microsomes assessed as half life at 100 uM incubated for 60 mins in presence of NADPH by LC-MS/MS analysis; assay type: ADME, Microsome
Measured attribute: half-life at 100 µM (h)
Record the value in h, omitting the unit from your answer.

Prompt: Need half-life at 100 µM, item Cc1cc(Nc2nc(NCc3ccc(F)cc3F)nc3c2cnn3C2CCN(C(=O)C3CCN(c4ccc5c(c4)C(=O)N(C4CCC(=O)NC4=O)C5=O)CC3)CC2)n[nH]1 (stereo unspecified)
Response: 1.06

###

experiment: Metabolic stability in mouse liver microsomes assessed as half life at 100 uM incubated for 60 mins in presence of NADPH by LC-MS/MS analysis; type: ADME, Microsome
Measured attribute: half-life at 100 µM
Please answer using the number first and the unit second.

Prompt: Need half-life at 100 µM, item Cc1cc(Nc2nc(NCc3ccc(F)cc3F)nc3c2cnn3C2CCN(C(=O)C3CCN(c4ccc5c(c4)C(=O)N(C4CCC(=O)NC4=O)C5=O)CC3)CC2)n[nH]1 (stereo unspecified)
Response: 1.35 h

###

// reported Activity for each item listed
molecular target: Protein cereblon/Serine/threonine-protein kinase PLK4 (Homo sapiens, UniProt O00444+Q96SW2); test: Protac activity at CRBN/PLK4 in human MCF7 cells at 0.1 uM incubated for 48 hrs by Western blot analysis; type: cell-based
Please answer using the number first and the unit second.

[[record]]
molecule = "Cc1cc(Nc2nc(NCc3ccc(F)cc3F)nc3c2cnn3C2CCN(CC3CC4(C3)CN(c3ccc5c(c3)C(=O)N(C3CCC(=O)NC3=O)C5=O)C4)CC2)n[nH]1 (stereo not drawn)"
assay_value = "4.12%"

[[record]]
molecule = "Cc1cc(Nc2nc(NCc3ccc(F)cc3F)nc3c2cnn3C2CCN(C(=O)C3CC4(C3)CN(c3ccc5c(c3)C(=O)N(C3CCC(=O)NC3=O)C5=O)C4)CC2)n[nH]1 (stereo not drawn)"
assay_value = "0.28%"

[[record]]
molecule = "Cc1cc(Nc2nc(NCc3ccc(F)cc3F)nc3c2cnn3C2CCN(C(=O)CC3CCN(c4ccc5c(c4)C(=O)N(C4CCC(=O)NC4=O)C5=O)CC3)CC2)n[nH]1 (stereo not drawn)"
assay_value = "46.2%"

[[record]]
molecule = "Cc1cc(Nc2nc(NCc3ccc(F)cc3F)nc3c2cnn3C2CCN(C(=O)COCCOCCOc3ccc4c(c3)C(=O)N(C3CCC(=O)NC3=O)C4=O)CC2)n[nH]1 (stereo not drawn)"
assay_value = "24.6%"

[[record]]
molecule = "Cc1cc(Nc2nc(NCc3ccc(F)cc3F)nc3c2cnn3C2CCN(C(=O)CC3CCN(c4ccc5c(c4)C(=O)N(C4CCC(=O)NC4=O)C5=O)C3)CC2)n[nH]1 (stereo not drawn)"
assay_value = "39.2%"


Prompt: Need Activity, item Cc1cc(Nc2nc(NCc3ccc(F)cc3F)nc3c2cnn3C2CCN(C(=O)CCOCCOCCCOc3ccc4c(c3)C(=O)N(C3CCC(=O)NC3=O)C4=O)CC2)n[nH]1 (stereo not drawn)
Response: 29.1%

Prompt: Need Activity, item Cc1cc(Nc2nc(NCc3ccc(F)cc3F)nc3c2cnn3C2CCN(C(=O)Cc3ccc(N4CCN(c5ccc6c(c5)C(=O)N(C5CCC(=O)NC5=O)C6=O)CC4)cc3)CC2)n[nH]1 (stereo not drawn)
Response: 40.1%

Prompt: Need Activity, item Cc1cc(Nc2nc(NCc3ccc(F)cc3F)nc3c2cnn3C2CCN(C(=O)c3ccc(C4CCN(c5ccc6c(c5)C(=O)N(C5CCC(=O)NC5=O)C6=O)CC4)cc3)CC2)n[nH]1 (stereo not drawn)
Response: 50.5%

Prompt: Need Activity, item Cc1cc(Nc2nc(NCc3ccc(F)cc3F)nc3c2cnn3C2CCN(C(=O)CCCCCCCOc3ccc4c(c3)C(=O)N(C3CCC(=O)NC3=O)C4=O)CC2)n[nH]1 (stereo not drawn)
Response: 30.2%

Prompt: Need Activity, item Cc1cc(Nc2nc(NCc3ccc(F)cc3F)nc3c2cnn3C2CCN(C(=O)CC3CN(c4ccc5c(c4)C(=O)N(C4CCC(=O)NC4=O)C5=O)C3)CC2)n[nH]1 (stereo not drawn)
Response: 47.7%

Prompt: Need Activity, item Cc1cc(Nc2nc(NCc3ccc(F)cc3F)nc3c2cnn3C2CCN(C(=O)CCCCOc3ccc4c(c3)C(=O)N(C3CCC(=O)NC3=O)C4=O)CC2)n[nH]1 (stereo not drawn)
Response: 44.1%

Prompt: Need Activity, item Cc1cc(Nc2nc(NCc3ccc(F)cc3F)nc3c2cnn3C2CCN(C(=O)COc3ccc4c(c3)C(=O)N(C3CCC(=O)NC3=O)C4=O)CC2)n[nH]1 (stereo not drawn)
Response: 25.3%

Prompt: Need Activity, item Cc1cc(Nc2nc(NCc3ccc(F)cc3F)nc3c2cnn3C2CCN(C(=O)C3CCN(c4ccc5c(c4)C(=O)N(C4CCC(=O)NC4=O)C5=O)C3)CC2)n[nH]1 (stereo not drawn)
Response: 36.7%

Prompt: Need Activity, item Cc1cc(Nc2nc(NCc3ccc(F)cc3F)nc3c2cnn3C2CCN(CC3CCN(c4ccc5c(c4)C(=O)N(C4CCC(=O)NC4=O)C5=O)C3)CC2)n[nH]1 (stereo not drawn)
Response: 3.54%

Prompt: Need Activity, item Cc1cc(Nc2nc(NCc3ccc(F)cc3F)nc3c2cnn3C2CCN(Cc3ccc(C4CCN(c5ccc6c(c5)C(=O)N(C5CCC(=O)NC5=O)C6=O)CC4)cc3)CC2)n[nH]1 (stereo not drawn)
Response: 1.05%

Prompt: Need Activity, item Cc1cc(Nc2nc(NCc3ccc(F)cc3F)nc3c2cnn3C2CCN(C(=O)CCCCCCCCCCCCCCCCCOc3ccc4c(c3)C(=O)N(C3CCC(=O)NC3=O)C4=O)CC2)n[nH]1 (stereo not drawn)
Response: 20.2%

Prompt: Need Activity, item Cc1cc(Nc2nc(NCc3ccc(F)cc3F)nc3c2cnn3C2CCN(C(=O)COCCOc3ccc4c(c3)C(=O)N(C3CCC(=O)NC3=O)C4=O)CC2)n[nH]1 (stereo not drawn)
Response: 2.13%

Prompt: Need Activity, item Cc1cc(Nc2nc(NCc3ccc(F)cc3F)nc3c2cnn3C2CCN(C(=O)CCCCCCCCCCCCCOc3ccc4c(c3)C(=O)N(C3CCC(=O)NC3=O)C4=O)CC2)n[nH]1 (stereo not drawn)
Response: 11.6%
